FYI, the data here is from paper PMC4089482.

Test system: V. cholerae O1 biovar eltor strain N16961
Experiment: Growth-curve experiment in M9 minimal medium with different sugars
Type: cell-based, Vibrio cholerae
Conditions: M9 minimal medium supplemented with sugar (5 mg ml^−1; all at 5 mM), 37°C
value type: growth of V. cholerae in the presence of the compound (OD600)

{"compound": "O=C(O)CCC(=O)O [succinate]", "tgt": "V. cholerae O1 biovar eltor strain N16961", "reported": "Little growth"}
{"compound": "O=C(CO)[C@@H](O)[C@H](O)[C@H](O)CO", "tgt": "V. cholerae O1 biovar eltor strain N16961", "reported": "Little growth"}
{"compound": "C[C@@H](O)C(=O)O", "tgt": "V. cholerae O1 biovar eltor strain N16961", "reported": "No growth"}
{"compound": "OCC(O)CO", "tgt": "V. cholerae O1 biovar eltor strain N16961", "reported": "No growth"}
{"compound": "OC[C@H]1O[C@@](CO)(O[C@H]2O[C@H](CO)[C@@H](O)[C@H](O)[C@H]2O)[C@@H](O)[C@@H]1O", "tgt": "V. cholerae O1 biovar eltor strain N16961", "reported": "Little growth"}
{"compound": "O=C[C@H](O)[C@@H](O)[C@@H](O)[C@H](O)CO", "tgt": "V. cholerae O1 biovar eltor strain N16961", "reported": "No growth"}
{"compound": "O=C(O)CC(O)C(=O)O (racemic)", "tgt": "V. cholerae O1 biovar eltor strain N16961", "reported": "Little growth"}
{"compound": "CC(=O)NC1C(O)CC(O)(C(=O)O)OC1C(O)C(O)CO (centres unmarked)", "tgt": "V. cholerae O1 biovar eltor strain N16961", "reported": "grows"}
